Data origin, for the record: patent US7678796B2

- assay.explanation: Determination of brain to plasma ratio in rat
- Assay type: in vivo
- condition.context: female Sprague Dawley rats, read-out: Brain/Plasma Ratio of compound in Rat

chemical.structure	Kp
Cn1c(-c2ccn(C)c(=O)c2)nnc1N1CCC[C@@H]1c1nnn(-c2cccc(Cl)c2)n1	0.035
Cn1c(-c2ccc(=O)n(C)c2)nnc1N1CCC[C@@H]1c1cc(-c2cccc(Cl)c2)on1	0.005
Cc1cccc(-c2cc([C@H]3CCCN3c3nnc(-c4ccn(C)c(=O)c4)n3C)no2)c1	0.01
Cn1c(-c2ccnnc2)nnc1N1CCC[C@@H]1c1cc(-c2cccc(Cl)c2)on1	0.11

---

- study.target: human mGluR5d (Homo sapiens, UniProt P41594)
- Sequence (P41594 21-942 isoform P41594-3 limits assumed): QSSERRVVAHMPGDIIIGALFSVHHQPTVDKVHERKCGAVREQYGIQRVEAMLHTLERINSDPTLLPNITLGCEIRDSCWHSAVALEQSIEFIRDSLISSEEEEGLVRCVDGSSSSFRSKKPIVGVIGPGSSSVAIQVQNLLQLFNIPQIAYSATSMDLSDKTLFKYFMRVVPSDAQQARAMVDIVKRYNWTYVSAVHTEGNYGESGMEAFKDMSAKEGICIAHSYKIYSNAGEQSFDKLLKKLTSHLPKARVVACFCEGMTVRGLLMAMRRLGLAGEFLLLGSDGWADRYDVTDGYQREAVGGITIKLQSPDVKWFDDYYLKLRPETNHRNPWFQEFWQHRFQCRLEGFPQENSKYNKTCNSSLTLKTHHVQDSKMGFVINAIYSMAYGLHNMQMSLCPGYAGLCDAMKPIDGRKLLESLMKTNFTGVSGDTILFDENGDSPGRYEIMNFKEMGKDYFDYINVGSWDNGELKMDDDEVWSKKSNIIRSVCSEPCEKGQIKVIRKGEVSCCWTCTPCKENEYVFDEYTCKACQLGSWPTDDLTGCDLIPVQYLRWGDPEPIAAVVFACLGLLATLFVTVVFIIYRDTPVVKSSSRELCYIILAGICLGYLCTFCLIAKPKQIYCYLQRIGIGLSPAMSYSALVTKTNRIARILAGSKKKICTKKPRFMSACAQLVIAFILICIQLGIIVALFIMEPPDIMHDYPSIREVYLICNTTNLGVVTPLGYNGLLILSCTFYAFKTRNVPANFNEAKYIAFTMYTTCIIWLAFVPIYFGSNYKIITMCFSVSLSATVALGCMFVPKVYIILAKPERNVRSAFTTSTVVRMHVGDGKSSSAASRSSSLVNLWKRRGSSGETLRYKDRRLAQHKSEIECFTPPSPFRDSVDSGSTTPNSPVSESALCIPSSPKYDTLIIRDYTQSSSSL
- assay.explanation: FLIPR assay, functional assessment of mGluR5 antagonism (intracellular calcium mobilization)
- condition.context: cells expressing human mGluR5d; read-out: FLIPR hmGluR5d
readout.type: IC50 (nM)

chemical.structure	readout.type	unit.spec	numeric.result
Cn1c(-c2ccc(=O)n(C)c2)nnc1N1CCC[C@@H]1c1cc(-c2cccc(Cl)c2)on1	IC50	nM	47
Cn1c(-c2ccn(C)c(=O)c2)nnc1N1CCC[C@@H]1c1nnn(-c2cccc(Cl)c2)n1	IC50	nM	39
Cc1cccc(-c2cc([C@H]3CCCN3c3nnc(-c4ccn(C)c(=O)c4)n3C)no2)c1	IC50	nM	50
Cn1c(-c2ccnnc2)nnc1N1CCC[C@@H]1c1cc(-c2cccc(Cl)c2)on1	IC50	nM	25

---

- study.target: HERG (Homo sapiens, UniProt Q12809)
- Sequence (Q12809 whole entry): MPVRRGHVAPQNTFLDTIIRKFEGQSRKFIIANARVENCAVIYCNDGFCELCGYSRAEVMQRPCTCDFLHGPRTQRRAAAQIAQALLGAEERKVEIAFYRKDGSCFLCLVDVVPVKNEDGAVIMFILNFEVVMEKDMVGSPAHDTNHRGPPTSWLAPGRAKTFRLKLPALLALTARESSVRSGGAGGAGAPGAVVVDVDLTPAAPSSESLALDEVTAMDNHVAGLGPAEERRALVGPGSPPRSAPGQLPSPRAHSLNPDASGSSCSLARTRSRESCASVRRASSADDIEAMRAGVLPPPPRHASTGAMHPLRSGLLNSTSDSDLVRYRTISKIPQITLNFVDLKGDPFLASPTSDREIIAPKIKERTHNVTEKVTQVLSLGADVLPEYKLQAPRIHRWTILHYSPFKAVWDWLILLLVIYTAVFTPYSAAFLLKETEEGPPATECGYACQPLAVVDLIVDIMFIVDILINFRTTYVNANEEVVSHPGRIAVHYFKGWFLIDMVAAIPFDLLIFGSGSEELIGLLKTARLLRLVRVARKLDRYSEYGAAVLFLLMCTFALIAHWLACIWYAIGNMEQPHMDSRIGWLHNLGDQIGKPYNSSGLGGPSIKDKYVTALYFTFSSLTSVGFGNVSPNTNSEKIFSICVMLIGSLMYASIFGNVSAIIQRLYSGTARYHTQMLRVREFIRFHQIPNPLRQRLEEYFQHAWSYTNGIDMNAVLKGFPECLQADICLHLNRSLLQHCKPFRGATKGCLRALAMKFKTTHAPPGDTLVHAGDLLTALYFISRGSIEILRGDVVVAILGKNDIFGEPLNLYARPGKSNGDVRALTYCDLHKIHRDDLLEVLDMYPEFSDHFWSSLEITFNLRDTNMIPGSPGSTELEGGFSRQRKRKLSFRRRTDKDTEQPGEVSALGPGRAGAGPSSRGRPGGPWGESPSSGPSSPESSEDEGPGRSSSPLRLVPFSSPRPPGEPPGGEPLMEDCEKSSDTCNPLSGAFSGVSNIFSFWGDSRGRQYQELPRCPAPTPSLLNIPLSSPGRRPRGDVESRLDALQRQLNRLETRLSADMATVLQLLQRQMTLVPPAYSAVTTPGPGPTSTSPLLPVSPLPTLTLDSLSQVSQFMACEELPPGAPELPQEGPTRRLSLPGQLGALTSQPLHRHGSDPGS
- assay.explanation: HERG ionworks
- Format: cell-based
readout.type: HERG ionworks (µM)

chemical.structure	readout.type	unit.spec	numeric.result
Cn1c(-c2ccnnc2)nnc1N1CCC[C@@H]1c1cc(-c2cccc(Cl)c2)on1	HERG ionworks	µM	16
Cn1c(-c2ccn(C)c(=O)c2)nnc1N1CCC[C@@H]1c1nnn(-c2cccc(Cl)c2)n1	HERG ionworks	µM	20
Cc1cccc(-c2cc([C@H]3CCCN3c3nnc(-c4ccn(C)c(=O)c4)n3C)no2)c1	HERG ionworks	µM	24
Cn1c(-c2ccc(=O)n(C)c2)nnc1N1CCC[C@@H]1c1cc(-c2cccc(Cl)c2)on1	HERG ionworks	µM	23
